assayInfo: Quantitative High-Throughput drug screen in 47 multiple myeloma cell lines against the NCATS MIPE library collection: OCIMY5_PLB cell viability assay (AID 1918988); note: nearly all actives have a fitted effect of over 65% in size
conditionDetails: OCI-MY5 myeloma viability, ATP luminescence, 48 h; series mostly up to 45.8 µM
Results filed as inconclusive are left out. Active and inactive are the calls of the source. Calls come from the whole dose curve; as a rule, active = well fitted cell-killing curve with a large enough effect; inconclusive = small, poorly fitted or top-dose-only effect, or effect the other way; inactive = no such curve, though single readings can be large or run the other way.
Outcomes: Y for active, N for inactive

compound | discreteLabel
NC(=O)NO | Y
CN(C)CCC=C1c2ccccc2C=Cc2ccccc21 | Y
O=C(c1ccc(OCCN2CCCCC2)cc1)c1c(-c2ccc(O)cc2)sc2cc(O)ccc12 | Y
O=C1Cc2cc(CCN3CCN(c4nsc5ccccc45)CC3)c(Cl)cc2N1 | Y
CC(C)NCC(O)c1ccc(O)c(O)c1 (stereo unspecified) | Y
CC(C(=O)O)c1cccc(C(=O)c2ccccc2)c1 (stereo unspecified) | Y
Nc1nc2c(ncn2COC(CO)CO)c(=O)[nH]1 | Y
CNCCCC12CCC(c3ccccc31)c1ccccc12 | Y
CC(C)NCC(O)COc1ccc(CCOCC2CC2)cc1 (stereo unspecified) | N
CCC1(C)CC(=O)NC1=O (stereo unspecified) | N
O=C1N(c2ccccc2)c2ccccc2C1(Cc1ccncc1)Cc1ccncc1 | Y
Cc1ccc(-c2cc(C(F)(F)F)nn2-c2ccc(S(N)(=O)=O)cc2)cc1 | Y
N[C@@H](Cc1c[nH]c2ccc(O)cc12)C(=O)O | N
CN1CCN(CCCN2c3ccccc3Sc3ccc(Cl)cc32)CC1 | Y
O=c1[nH]cc(F)c(=O)[nH]1 | N
NC12CC3CC(CC(C3)C1)C2 | Y
O=C1c2c(O)ccc(O)c2C(=O)c2c(NCCNCCO)ccc(NCCNCCO)c21 | Y
CCOC(=O)c1ncn2c1CN(C)C(=O)c1cc(F)ccc1-2 | Y
CN(C)C(=O)C(CCN1CCC(O)(c2ccc(Cl)cc2)CC1)(c1ccccc1)c1ccccc1 | Y
CC(C)Cc1ccc(C(C)C(=O)O)cc1 (stereo unspecified) | N
CN1CCN(C2=Nc3cc(Cl)ccc3Nc3ccccc32)CC1 | N
CN1CCN2c3ccccc3Cc3ccccc3C2C1 (stereo unspecified) | Y
NCCc1cnc[nH]1 | N
CN1C(C(=O)Nc2ccccn2)=C(O)c2ccccc2S1(=O)=O | N
Cn1cnc2c1c(=O)[nH]c(=O)n2C | Y
CC[C@@]1(O)C(=O)OCc2c1cc1n(c2=O)Cc2cc3c(CN(C)C)c(O)ccc3nc2-1 | Y

* * *

assayInfo: qHTS Screen of the MIPE 4.0 Collection Against Ewings Sarcoma (TC71) (AID 1259253); note: nearly all actives have a fitted effect of over 40% in size; note: potency is the fitted concentration of half-maximal effect
conditionDetails: TC71 Ewing sarcoma viability, CellTiter-Glo, 48 h; series mostly up to 45.8 µM
Inconclusive results are not listed. Calls of active or inactive are those of the source. Calls follow the shape of the dose curve; as a rule, active = well fitted inhibition curve with a large enough effect; inconclusive = small, poorly fitted or top-dose-only effect; inactive = no such curve, though single readings can be large or run the other way.

molecule | Potency
CCN1CCCC1CNC(=O)c1cc(S(=O)(=O)CC)c(N)cc1OC (stereo not given) | inactive
CCCNCC(O)COc1ccccc1C(=O)CCc1ccccc1 (stereo not given) | 14.8 µM (active)
COC(=O)Nc1nc2ccc(C(=O)c3cccs3)cc2[nH]1 | 0.0118 µM (active)
CC(=O)OCC(CCn1cnc2cnc(N)nc21)COC(C)=O | inactive
NC12CC3CC(CC(C3)C1)C2 | 26.4 µM (active)
CN(CCOc1ccc(NS(C)(=O)=O)cc1)CCc1ccc(NS(C)(=O)=O)cc1 | 16.6 µM (active)
CC1(C)O[C@H]2CC(=O)OC[C@]23[C@H]2CC[C@@]4(C)[C@H](c5ccoc5)OC(=O)[C@H]5O[C@]54[C@]2(C)C(=O)C[C@@H]13 | inactive
CC[N+](CC)(CC)CCOc1cccc(OCC[N+](CC)(CC)CC)c1OCC[N+](CC)(CC)CC | inactive
N[C@@H](Cc1c[nH]c2ccc(O)cc12)C(=O)O | inactive
Cc1cn([C@H]2C[C@H](N=[N+]=[N-])[C@@H](CO)O2)c(=O)[nH]c1=O | inactive

* * *

assayInfo: Cell Viability - N2a (AID 540);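 note: cells exposed to compound for 40 h at 37 °C; plate controls were DMSO alone for no effect and tamoxifen control for full effect; nearly all actives have a fitted effect of over 45% in size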
conditionDetails: N2a mouse neuroblastoma cell viability; at 92.2 µM (top of the series)
Results filed as inconclusive are left out. Active and inactive are the calls of the source. Calls come from the whole dose curve; as a rule, active = well fitted cell-killing curve with a large enough effect; inconclusive = small, poorly fitted or top-dose-only effect; inactive = flat fitted curve, though single readings scatter.
Outcomes: 1 for active, 0 for inactive

compound | discreteLabel
CC(COc1ccccc1)N(CCCl)Cc1ccccc1 (centres undefined) | 1
O=c1[nH]cc(F)c(=O)[nH]1 | 0
NS(=O)(=O)c1cc2c(cc1Cl)NCNS2(=O)=O | 0
Cn1c(=O)c2c(ncn2C)n(C)c1=O | 0
N[C@@H](Cc1c[nH]c2ccc(O)cc12)C(=O)O | 0
CCC1(c2ccccc2)C(=O)NCNC1=O | 0
Cc1cn([C@H]2C[C@H](N=[N+]=[N-])[C@@H](CO)O2)c(=O)[nH]c1=O | 0
Cc1ccc(-c2cc(C(F)(F)F)nn2-c2ccc(S(N)(=O)=O)cc2)cc1 | 0
Nc1c2c(nc3ccccc13)CCCC2 | 0

* * *

assayInfo: NCATS anti-infectives library activity on HEK293 viability as a counter-qHTS vs the C. elegans viability qHTS (AID 1745854);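 note: HEK293 cells exposed to compounds for 24 hr before the viability read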
conditionDetails: HEK293 viability counter-screen; series mostly up to 41.8 µM
Inconclusive results are not listed. The source made the active and inactive calls. Calls come from the whole dose curve; as a rule, active = well fitted cell-killing curve with a large enough effect; inconclusive = small, poorly fitted or top-dose-only effect; inactive = flat fitted curve, though single readings scatter.
Outcomes: active, inactive

compound | discreteLabel
CC(C)Cc1ccc(C(C)C(=O)O)cc1 (stereo not drawn) | inactive
COc1ccccc1OCC(O)CN1CCN(CC(=O)Nc2c(C)cccc2C)CC1 (stereo not drawn) | inactive
Nc1ccn([C@H]2CC[C@@H](CO)O2)c(=O)n1 | inactive
O=C1c2c(O)ccc(O)c2C(=O)c2c(NCCNCCO)ccc(NCCNCCO)c21 | active
CN(C)CCCN1c2ccccc2CCc2ccc(Cl)cc21 | inactive
Cc1cn([C@H]2C=C[C@@H](CO)O2)c(=O)[nH]c1=O | inactive
CC(=O)OCC(CCn1cnc2cnc(N)nc21)COC(C)=O | inactive
NC(=O)NO | inactive
COc1ccc(C2CNC(=O)C2)cc1OC1CCCC1 (stereo not drawn) | inactive
CC1(C)O[C@H]2CC(=O)OC[C@]23[C@H]2CC[C@@]4(C)[C@H](c5ccoc5)OC(=O)[C@H]5O[C@]54[C@]2(C)C(=O)C[C@@H]13 | inactive
OCCN(CCO)c1nc(N2CCCCC2)c2nc(N(CCO)CCO)nc(N3CCCCC3)c2n1 | inactive
NC12CC3CC(CC(C3)C1)C2 | inactive
Nc1nc2c(ncn2COC(CO)CO)c(=O)[nH]1 | inactive

* * *

Test system: ATS189
assayInfo: qHTS profiling for inhibitors of Plasmodium falciparum proliferation (AID 504749); note: nearly all actives have a fitted effect of over 60% in size
conditionDetails: P. falciparum in erythrocytes, SYBR Green DNA, 72 h; series mostly up to 28.7 µM
Results filed as inconclusive are left out. Activity calls are given as the source filed them. The call rests on the fitted dose curve; in most records, active means well fitted inhibition curve with a large enough effect; inconclusive means small, poorly fitted or top-dose-only effect; inactive means flat fitted curve, though single readings scatter.
Outcomes: active, inactive

compound | discreteLabel
Cc1cn([C@H]2C=C[C@@H](CO)O2)c(=O)[nH]c1=O | inactive
Cc1ccc(C(=O)Nc2ccc(S(=O)(=O)O)c3cc(S(=O)(=O)O)cc(S(=O)(=O)O)c23)cc1NC(=O)c1cccc(NC(=O)Nc2cccc(C(=O)Nc3cc(C(=O)Nc4ccc(S(=O)(=O)O)c5cc(S(=O)(=O)O)cc(S(=O)(=O)O)c45)ccc3C)c2)c1 | inactive
Clc1ccc2nsnc2c1NC1=NCCN1 | inactive
Cn1cnc2c1c(=O)[nH]c(=O)n2C | inactive
CN(C)C(=N)N=C(N)N | inactive
CC(C)C(=O)Nc1ccc([N+](=O)[O-])c(C(F)(F)F)c1 | inactive
Cc1cc(C(C)(C)C)c(O)c(C)c1CC1=NCCN1 | inactive
Cc1cnc(C(=O)NCCc2ccc(S(=O)(=O)NC(=O)NC3CCCCC3)cc2)cn1 | inactive
CCC1(c2ccccc2)C(=O)NCNC1=O | inactive
O=C(c1ccc(F)cc1)C1CCN(CCn2c(=O)[nH]c3ccccc3c2=O)CC1 | inactive
N[C@@H](Cc1c[nH]c2ccc(O)cc12)C(=O)O | inactive
Clc1ccc(C(c2ccccc2Cl)C(Cl)Cl)cc1 (centres undefined) | inactive
CN1C(C(=O)Nc2ccccn2)=C(O)c2ccccc2S1(=O)=O | inactive
CCOC(=O)Nc1ccc(NCc2ccc(F)cc2)nc1N | active
Cn1c(=O)c2[nH]cnc2n(C)c1=O | inactive
CC12CC3CC(C)(C1)CC(N)(C3)C2 | inactive
NCCS(=O)(=O)O | inactive
O=c1c(-c2ccc(O)cc2)coc2cc(O)cc(O)c12 | inactive
CN(CCOc1ccc(NS(C)(=O)=O)cc1)CCc1ccc(NS(C)(=O)=O)cc1 | inactive
Clc1ccccc1C(c1ccccc1)(c1ccccc1)n1ccnc1 | active
CCOC(=O)C(C)(C)Oc1ccc(Cl)cc1 | inactive
COC(=O)Nc1nc2ccc(C(=O)c3cccs3)cc2[nH]1 | inactive
NC(=O)NO | inactive
CN(C)c1nc(N(C)C)nc(N(C)C)n1 | inactive

* * *

systemName: Flap endonuclease 1 (Homo sapiens) (UniProt P39748)
Sequence (P39748 whole entry, looked up): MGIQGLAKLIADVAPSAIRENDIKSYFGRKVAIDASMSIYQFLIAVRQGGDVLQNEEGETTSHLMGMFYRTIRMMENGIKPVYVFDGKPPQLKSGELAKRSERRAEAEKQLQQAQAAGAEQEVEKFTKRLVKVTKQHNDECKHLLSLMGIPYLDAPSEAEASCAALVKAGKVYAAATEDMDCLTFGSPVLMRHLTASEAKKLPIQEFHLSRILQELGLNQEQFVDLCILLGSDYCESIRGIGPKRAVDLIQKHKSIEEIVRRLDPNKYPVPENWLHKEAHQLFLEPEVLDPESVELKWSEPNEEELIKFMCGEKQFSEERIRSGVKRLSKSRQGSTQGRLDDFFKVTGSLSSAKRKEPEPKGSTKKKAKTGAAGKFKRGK
assayInfo: qHTS Validation Assay for the Inhibitors of Human Flap endonuclease 1 (FEN1) (AID 488816)
conditionDetails: FEN1 nuclease activity, fluorogenic DNA substrate; series mostly up to 57.1 µM
Activity calls are given as the source filed them. The call rests on the fitted dose curve; in most records, active means well fitted inhibition curve with a large enough effect; inconclusive means small, poorly fitted or top-dose-only effect; inactive means flat fitted curve, though single readings scatter.
Outcomes: active, inactive

compound | discreteLabel
NC(CO)C(=O)NNCc1ccc(O)c(O)c1O (stereo not given) | inactive
O=C1N(c2ccccc2)c2ccccc2C1(Cc1ccncc1)Cc1ccncc1 | inactive
C[C@H]1c2cccc(O)c2C(O)=C2C(=O)[C@]3(O)C(O)=C(C(N)=O)C(=O)[C@@H](N(C)C)[C@@H]3[C@@H](O)[C@@H]21 | active
CN(C)CCOC(c1ccccc1)c1ccccc1 | inactive
Nc1c2c(nc3ccccc13)CCCC2 | inactive
CCCCc1oc2ccccc2c1C(=O)c1cc(I)c(OCCN(CC)CC)c(I)c1 | inactive
CN(Cc1cnc2nc(N)nc(N)c2n1)c1ccc(C(=O)N[C@@H](CCC(=O)O)C(=O)O)cc1 | inactive
Cc1cnc(C(=O)NCCc2ccc(S(=O)(=O)NC(=O)NC3CCCCC3)cc2)cn1 | inactive
CCCNCC(O)COc1ccccc1C(=O)CCc1ccccc1 (stereo not given) | inactive
O=C(Nc1ccc([N+](=O)[O-])cc1Cl)c1cc(Cl)ccc1O | inactive
